assay: self-splicing fitness, log relative to wild type (ln ratio); higher = more splicing; Tetrahymena group I intron in knt gene, E. coli kanamycin selection, DiMSum; sequences stand for … in CUCUCU…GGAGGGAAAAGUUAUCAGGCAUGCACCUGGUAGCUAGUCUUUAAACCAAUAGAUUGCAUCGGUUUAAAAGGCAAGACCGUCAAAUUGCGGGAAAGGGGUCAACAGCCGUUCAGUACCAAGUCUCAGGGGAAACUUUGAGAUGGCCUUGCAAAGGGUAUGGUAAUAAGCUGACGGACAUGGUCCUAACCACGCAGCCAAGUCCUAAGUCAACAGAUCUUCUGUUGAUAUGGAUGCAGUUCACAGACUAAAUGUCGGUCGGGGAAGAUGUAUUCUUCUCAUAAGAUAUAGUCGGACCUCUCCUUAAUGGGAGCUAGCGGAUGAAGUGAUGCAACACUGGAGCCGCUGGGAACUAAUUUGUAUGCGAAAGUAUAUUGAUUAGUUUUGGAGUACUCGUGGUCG; conditions: 37 °C;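 also: selection with 25 µg/mL kanamycin versus none on LB agar overnight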
Categories are assigned from the measured self-splicing fitness (ln) using these intervals: lower (below -2), middle (-2 to below -1), upper (-1 or more)

A selection of reference data follows.
GUCAAGCAAUAUUACGAGCC :: lower
AUCUAGCAAUAUUACGGGGG :: middle
UGACAGCAAUAUUACGCUAC :: middle
GAGCAGCAAUAUUACGCGAC :: middle
GAUAAGCAAUAUUACGAACU :: upper

**Q:** Where would `GUAUAGCAAUAUUACGUAUU` land among the classes by reported self-splicing fitness (ln)?
**A:** middle

**Q:** Where would `UGCCAGCAAUAUUACGCGAC` land among the classes by reported self-splicing fitness (ln)?
**A:** upper

**Q:** Where would `UGGUAGCAAUAUUACGAAUA` land among the classes by reported self-splicing fitness (ln)?
**A:** middle

**Q:** Where would `GCCGAGCAAUAUUACGUGGA` land among the classes by reported self-splicing fitness (ln)?
**A:** middle

**Q:** Where would `CCGCAGCAAUAUUACGGGUU` land among the classes by reported self-splicing fitness (ln)?
**A:** lower

**Q:** Where would `CCCCAGCAAUAUUACGUGUC` land among the classes by reported self-splicing fitness (ln)?
**A:** lower

**Q:** Where would `CCCAAGCAAUAUUACGUGGG` land among the classes by reported self-splicing fitness (ln)?
**A:** lower

**Q:** Where would `GAAAAGCAAUAUUACGAGGG` land among the classes by reported self-splicing fitness (ln)?
**A:** middle

**Q:** Where would `UUUAAGCAAUAUUACGGACU` land among the classes by reported self-splicing fitness (ln)?
**A:** upper

**Q:** Where would `AACUAGCAAUAUUACGACUU` land among the classes by reported self-splicing fitness (ln)?
**A:** upper
